I'd be grateful if you could share measured TGI for these entries.
Test system: SK-MEL-28 melanoma
measurementNotes: NCI tumour cell line growth inhibition, 48 h

INSERT INTO measurements (molecule, targetortestsystem, result) VALUES
  ('CCOC(=O)/C(C1=CC(=O)C(=O)c2ccccc21)=C(/C)NCc1ccccc1', 'SK-MEL-28 melanoma', '7.32 µM');

Provide TGI for all items below, preserving their order.
1. Cc1cc(O)cc(C)c1/C=C/c1cncc(C(=O)N(C)C)c1
2. Clc1ccc(-c2nc(-c3ccc(Cl)cc3)[s+]s2)cc1
3. O=C(O)C(Cc1cccs1)C(=O)O
4. c1ccc(N=NNNc2ccc(-c3nc4ccccc4[nH]3)cc2)cc1

> 25 µM
> 100 µM
> 100 µM
> 100 µM

Provide TGI for all items below, preserving their order.
1. COc1cccc(/C=C/C2=NN(c3cccc(S(=O)(=O)O)c3)C3(C2)SCC(=O)N3c2nc3ccccc3s2)c1 (stereo not given)
2. COc1nc2c(c(=O)n1C)N[C@@H]1[C@@H](O)[C@H](O)CO[C@@H]1N2

1. > 100 µM
2. > 100 µM

Provide TGI for all items below, preserving their order.
1. CCc1ccc(C2=C(O)C(=O)C(c3ccc(CC)cc3)=C(O)C2=O)cc1
2. COc1cc(C(C#N)NNC(=O)c2ccccc2O)ccc1O (stereo not given)

1. 8.89 µM
2. > 100 µM

Quick one: TGI of Cc1ccc(C)c(NC(=O)/C(=N\NC(N)=S)C(C#N)c2ccccc2)c1 (stereo not given) ? > 100 µM

----------
Test system: NCI-H226 lung
measurementNotes: NCI tumour cell line growth inhibition, 48 h
I'd be grateful if you could share measured TGI for these entries.
One number for each entry, in µM.

Sample answers from the record:
INSERT INTO measurements (chemsmiles, resultnumber) VALUES
  ('COc1ccc2nc3c([N+](=O)[O-])ccc4c3c(c2c1)NCCN4C', 3.59),
  ('CC1(C)C(=O)/C(=C\c2ccco2)C[C@]2(C)[C@H]3CC=C4[C@@H]5C[C@](C)(C(=O)O)CC[C@]5(C)CC[C@@]4(C)[C@]3(C)CC[C@@H]12', 37);

Consider now this further compound.
Quick one: TGI of Cc1nc2ccccc2n1CCc1nc2ccccc2s1 ? 42.9

----------
Tested on: TK-10 renal
I'd be grateful if you could share measured GI50 for these entries.

INSERT INTO results (molecule, reportedendpoint, result) VALUES
  ('CCOC(=O)/C=C/c1ccc(C(=O)OCC)[nH]1', 'GI50', '6.05 µM');

Provide GI50 for all items below, preserving their order.
1. NC(N)=N/N=C/c1c(-c2cc(Cl)sc2Cl)nc2n1CCS2
2. N#CC1C(N)=NNC1c1ccc(-c2ccc(-c3nc4ccccc4o3)cc2)o1 (stereo not given)
3. O=C1NC(=O)C(c2ccccc2Cl)=C1Nc1cccc(O)c1
4. NCCCCCCNc1cc(-c2cccc(OC(F)(F)F)c2)nc2ccc(N3CCCC3)cc12

8.65 µM
25.5 µM
10.7 µM
1.88 µM

----------
So I've got GI50 readings for U251 CNS, take a look.

Sample answers from the record:
INSERT INTO results (chemsmiles, targetortestsystem, reportedendpoint, result) VALUES
  ('O=C(/C=C/c1ccc([N+](=O)[O-])o1)NNC(=O)c1cc2ccccc2cc1O', 'U251 CNS', 'GI50', '2170 nM'),
  ('CCOC(=O)/C(C1=CC(=O)C(=O)c2ccccc21)=C(/C)NCc1ccccc1', 'U251 CNS', 'GI50', '606 nM'),
  ('O=Nc1c2cccnc2n2nnc3ccc(Cl)cc3c12', 'U251 CNS', 'GI50', '2570 nM');

GET /values?readout=GI50&system=U251 CNS&item= Cc1ccc(-c2cc3nc(-c4ccccc4)nc(C(Cl)Cl)n3n2)cc1 419 nM

----------
Test system: HS 578T breast
measurementNotes: NCI tumour cell line growth inhibition, 48 h; in the data active = GI50 below about 0.43 µM; inactive = the rest
# output must be one of 1 (yes) (active), 0 (no) (inactive)

Please share the test call associated with NS(=O)(=O)c1ccc(/C=C/c2cccc(O)c2)cc1 . 0 (no)

Please share the test call associated with CCN(CC)CC(C)Nc1ccc(C)c2sc3ccccc3c(=O)c12 (stereo unspecified) . 0 (no)

----------
Test system: U251 CNS
measurementNotes: NCI tumour cell line growth inhibition, 48 h
I'd be grateful if you could share measured TGI for these entries.
One number for each entry, in µM.

Provide TGI for all items below, preserving their order.
1. O=C1/C(=C/c2cccs2)N=C(c2ccccc2)N1C1Nc2cc3c(cc2S1)NC(N1C(=O)/C(=C/c2cccs2)N=C1c1ccccc1)S3 (stereo unspecified)
2. O=C(Nc1ccc(Br)cc1)c1cc(Br)cc(Br)c1O

32.7
23.1

Provide TGI for all items below, preserving their order.
1. c1ccc2c(c1)SC1Sc3ccccc3[S+]21 (stereo unspecified)
2. COc1cccc(C2c3cc4c(cc3OC(N3CCOCC3)C2C)OCO4)c1O (stereo unspecified)
3. CCCCCCCCCCCC(=O)C1=C(O)C(O)CCC1=O (stereo unspecified)
4. CCCCCc1c(CCCC)c(=O)[nH]c2cc(CNCC(OC)OC)ccc12

[45.5, 12.7, 55.5, 23.9]

----------
System: K-562 leukemia
measurementNotes: NCI tumour cell line growth inhibition, 48 h
reportedEndpoint: TGI

Provide TGI for all items below, preserving their order.
1. CC(NC(=O)c1ccc(OP(=O)(OCC2=CC(=O)c3ccccc3C2=O)N(C)CCCCCl)cc1)c1ccc(OCC2CCCCC2)c(C(N)=O)c1 (configuration not stated)
2. CCOC(=O)/C(C1=CC(=O)C(=O)c2ccccc21)=C(/C)NCc1ccccc1

["43.1 µM", "3.24 µM"]

----------
So I've got GI50 readings for SF-295 CNS, take a look.

Sample answers from the record:
INSERT INTO assay_data (compound, reportedendpoint, result) VALUES
  ('C=C1C(O)C2C(=C(CC(C)C)C13CC3)C(=O)C(C)(C)C2OC (stereo not drawn)', 'GI50', '> 100 µM'),
  ('O=Nc1c2cccnc2n2nnc3ccc(Cl)cc3c12', 'GI50', '4.24 µM');

GET /values?readout=GI50&system=SF-295 CNS&item= CCN(CC)CC(C)Nc1ccc(C)c2sc3ccccc3c(=O)c12 (stereo not drawn) 2.66 µM

----------
Tested on: NCI-H522 lung
reportedEndpoint: GI50

Sample answers from the record:
INSERT INTO results (compound, result) VALUES
  ('OCC1OC(N2C=C(c3nc4ccccc4s3)C3C=CC=CC32)C(O)C1O (stereo unspecified)', '> 50 µM'),
  ('C=C(CNCCO)[C@@H]1CC[C@]2(CO)CC[C@]3(C)[C@H](CC[C@@H]4[C@@]5(C)CCC(NCCc6ccc(O)cc6)C(C)(C)[C@@H]5CC[C@]43C)[C@@H]12 (stereo partly specified)', '1.64 µM'),
  ('CCN(CC)C(=S)SSC1CCCCC1', '2.91 µM'),
  ('CCOC(=O)c1sc2c(C(=O)OCC)n3ccccc3c2c1N', '24.3 µM'),
  ('CCc1ccc(C2=C(O)C(=O)C(c3ccc(CC)cc3)=C(O)C2=O)cc1', '1.51 µM');

Consider now this further compound.
Quick one: GI50 of O=C1C=C(c2cc(Br)c(O)c(Br)c2)/C(=C/c2cc(Br)c(O)c(Br)c2)O1 ? 30.4 µM

----------
Tested on: NCI-H522 lung
measurementNotes: NCI tumour cell line growth inhibition, 48 h
Outcome: 1 for TGI of at least 8 µM; -1 for anything lower.

Field: example entries. Status: answers known.
INSERT INTO assay_data (molecule, targetortestsystem, class) VALUES
  ('CC[C@@]1(OC(=O)CCC(=O)O)C(=O)OCc2c1cc1n(c2=O)Cc2cc3ccccc3nc2-1', 'NCI-H522 lung', -1),
  ('Nc1cc(CO)cc(Nc2c3ccccc3nc3occc23)c1', 'NCI-H522 lung', 1),
  ('CC(Nc1cc(Cl)cc(Cl)c1)c1ccncc1 (configuration not stated)', 'NCI-H522 lung', 1),
  ('Cn1c(=O)c2c(nc3n2CCC(=O)N3)n(C)c1=O', 'NCI-H522 lung', 1),
  ('CC/C=C\C[C@H](O)C/C=C1/C(=O)C=C[C@@H]1C/C=C\CCCC(N)=O', 'NCI-H522 lung', -1),
  ('CCOC(=O)/C=C(/C(=O)OCC)n1cc(C)c(=O)n(Cc2cnnn2CCCCOC(C)=O)c1=O', 'NCI-H522 lung', 1),
  ('CCOC(OC1=C(C#N)CCC1)C(CC)[Se]c1ccccc1 (configuration not stated)', 'NCI-H522 lung', 1),
  ('O=C1NC(N2CCOCC2)=N/C1=C\c1ccccc1O', 'NCI-H522 lung', 1);

Could you please find out whether O=C(Nc1ccc(Br)cc1)c1cc(Br)cc(Br)c1O has TGI that meets 8 µM or exceeds it? -1
